Values compiled from PubChem BioAssay (NCI).

Tested on: SNB-19 CNS
assay: NCI tumour cell line growth inhibition, 48 h
readout label: TGI

Use these answered entries as a reference point.
{"compound": "COc1cc(C(=O)C/C(CCC(=O)Nc2ccc(Cl)cc2Cl)=N/NC(=O)C(=O)NN)ccc1O", "tested on": "SNB-19 CNS", "readout label": "TGI", "reported": "> 100 µM"}
{"compound": "N#CC(C(=O)CCC(=O)Nc1cccc(C(F)(F)F)c1)c1ccc(Cl)cc1 (stereo not drawn)", "tested on": "SNB-19 CNS", "readout label": "TGI", "reported": "> 100 µM"}

Q. Can you look up the measured TGI of Clc1ccc(Cl)c(SCCCN2CCNCC2)c1 for me?
A. 34.4 µM

----------
# TGI per entry
Test system: NCI-H226 lung
assay: NCI tumour cell line growth inhibition, 48 h
Where a SMILES comes first, the peptide text is derived from it. The star is where a group is joined. Bn = c1ccc(C*)cc1

{"compound": "COc1ccc(N=C2C(=S)N(c3ccc(OC)cc3)/C(=N/S(=O)(=O)c3ccccc3)N2c2ccccc2)cc1", "TGI": "38.7 µM"}
{"compound": "O=c1nc(-c2ccccc2)cc(-c2ccccc2O)[nH]1", "TGI": "> 100 µM"}
{"compound": "OCC(O)CNc1ccnc2cc(Cl)ccc12 (stereo unspecified)", "TGI": "> 100 µM"}

Q. Can you look up the measured TGI of CCC(=O)Nc1ccc(N=NN(C)C)cc1 for me?
A. > 100 µM

Q. Can you look up the measured TGI of COC(=O)C(CC(C)C)NC(=O)C(N)Cc1ccc(OCc2ccccc2)cc1 (stereo unspecified) (H-Tyr(Bn)-Leu-OMe; configuration not given here) for me?
A. > 10 µM

Q. Can you look up the measured TGI of CC(C)(C)OC(=O)C1C(=O)NC(=O)CC1C(COCc1ccccc1)OCc1ccccc1 (stereo unspecified) for me?
A. 39.4 µM

Q. Can you look up the measured TGI of O=C1C(Cl)=C(Nc2ccccc2O)C(=O)N1Cc1ccccc1 for me?
A. 48.8 µM

Q. Can you look up the measured TGI of CC12CC1C(c1cccc([N+](=O)[O-])c1)(c1cccc([N+](=O)[O-])c1)N=N2 (stereo unspecified) for me?
A. > 100 µM

Q. Can you look up the measured TGI of COc1ccc(/C=N/N2C(=O)c3c(N)c(C#N)c(-c4ccccc4)c(-c4ccccc4)c3C2=O)cc1 for me?
A. > 100 µM

Q. Can you look up the measured TGI of CC1=CC(=O)CC2(C)CCC(C(C)CC(=O)CC(C)C)CC12 (stereo unspecified) for me?
A. 63.2 µM

Q. Can you look up the measured TGI of Cc1cc2c(nn1)-c1ccccc1C2=O for me?
A. > 10 µM

Q. Can you look up the measured TGI of N#CC(C(=O)CCC(=O)Nc1cccc(C(F)(F)F)c1)c1ccc(Cl)cc1 (stereo unspecified) for me?
A. > 100 µM

Q. Can you look up the measured TGI of COc1cc(OCc2ccc3nc(OC)c(OC)nc3c2)cc(OC)c1OC for me?
A. > 10 µM

Q. Can you look up the measured TGI of CC(O)CC(O)(C(F)(F)F)C(F)(F)F (stereo unspecified) for me?
A. > 10 µM

Q. Can you look up the measured TGI of CC(C(=O)n1c2ccccc2c2ccccc21)N(c1ccccc1)c1ccccc1 (stereo unspecified) for me?
A. 47.7 µM

Q. Can you look up the measured TGI of COc1cc2c(cc1OC)C13CC[N+]4(C)CC5=CCOC6CC(=O)N2C1C6C5CC34[O-] (stereo unspecified) for me?
A. > 100 µM

Q. Can you look up the measured TGI of O=C(O)CSc1n[nH]c(Cc2ccccc2)n1 for me?
A. > 100 µM

Q. Can you look up the measured TGI of COC(=O)C1(Cc2ccc3c(c2)CCC3)Cc2cc3c(cc2C1)CCC3 for me?
A. > 100 µM

Q. Can you look up the measured TGI of CCOC(=O)/C(=C/c1cccc(C#N)c1)N(CC)CC for me?
A. > 100 µM

Q. Can you look up the measured TGI of Cc1nn(C(=O)c2ccc(Cl)cc2)c2c1C(c1ccc(O)cc1)SC(N)=N2 (stereo unspecified) for me?
A. > 10 µM

Q. Can you look up the measured TGI of Cn1ccnc1Sc1ccc(C=Nc2ccc3nc(SCC(=O)NC4CCCCC4)sc3c2)cc1[N+](=O)[O-] for me?
A. > 100 µM

Q. Can you look up the measured TGI of C[C@]12CC[C@@H]3c4ccc(O)c([N+](=O)[O-])c4CC[C@H]3[C@@H]1CC[C@@H]2NS(=O)(=O)c1cccc(Br)c1 for me?
A. 8.53 µM

Q. Can you look up the measured TGI of COc1cc(C=C2C(=O)NC(=S)NC2=O)cc(OC)c1OC for me?
A. > 100 µM
